Attribution: paper PMC6510891

- Assay Target: T1, HpRap1A (Hansenula polymorpha DL-1, UniProt W1Q7Z6 1-613)
- T1 sequence: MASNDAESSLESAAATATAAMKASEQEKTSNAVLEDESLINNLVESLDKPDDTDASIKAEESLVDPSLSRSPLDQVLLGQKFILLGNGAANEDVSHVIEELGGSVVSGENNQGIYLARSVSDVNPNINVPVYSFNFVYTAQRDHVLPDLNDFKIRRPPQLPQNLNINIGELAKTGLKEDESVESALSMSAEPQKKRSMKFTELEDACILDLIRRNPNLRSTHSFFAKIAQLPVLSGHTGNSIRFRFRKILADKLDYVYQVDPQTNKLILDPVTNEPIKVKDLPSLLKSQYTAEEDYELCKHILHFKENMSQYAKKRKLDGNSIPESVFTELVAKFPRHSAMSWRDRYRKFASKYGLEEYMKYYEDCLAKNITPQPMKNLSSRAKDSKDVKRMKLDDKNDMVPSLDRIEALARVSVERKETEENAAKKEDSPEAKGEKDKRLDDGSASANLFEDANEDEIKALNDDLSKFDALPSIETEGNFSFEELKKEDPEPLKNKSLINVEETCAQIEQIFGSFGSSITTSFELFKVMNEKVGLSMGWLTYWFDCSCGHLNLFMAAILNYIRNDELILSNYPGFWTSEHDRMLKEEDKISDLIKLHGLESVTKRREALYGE
- Protocol Description: SPR; kinetic fit; equilibrium Kd 12±3; SPR: 10 mM HEPES-NaOH pH 7.5, 150 mM NaCl, 0.5 mM DTT, 0.05% Tween 20, 1 mg/ml BSA, 0.02 mg/ml salmon sperm DNA; competition 2 nM protein with 20 or 200 nM competitor. EMSA: 20 mM HEPES-NaOH pH 7.5, 50 mM NaCl, 0.2 mg/ml BSA, 5% glycerol, 0.1 mg/ml salmon sperm DNA, room temperature
- Condition Parameters: protein: recombinant; 3' overhang 20 nt on strand 2
Property Label: Kd (nM)

- RPS0a (dsDNA) DNA 1: AGAGGGCTGTGCACGGATGCTAT DNA 2: ATAGCATCCGTGCACAGCCCTCTCCTCTACGTCCTCCTGCTCC: 10
